tested on: SK-MEL-2 melanoma; assay: NCI-60 one-dose screen, 48 h; details: 10 µM unless noted
This is part of a sample that, as a whole, favours compounds with a hit. Of some 83,000 tested, about 20% had one in any assay. The source made the active and inactive calls. The calls were made as follows: active = growth percent below 10; inactive = the rest.
Thanks in advance; please answer with one of these: active, inactive

Cn1ccnc1C(=O)C(=O)Nc1ccc(CC(=O)Nc2ccccc2)cc1	inactive
COc1ccc(-c2nnc(-c3ccc4c(c3)nc(-c3ccncc3)n4C3CCCCC3)o2)cc1	inactive
COCCn1cc(-c2nc(-c3cc4cccnc4n3CCOC)cs2)c2cc(OC)ccc21	inactive

Input line: Recorded test call requested for Cc1nc(-c2ccccc2)cc2c(O)c(C(=O)NN)[nH]c(=O)c12
Output line: inactive

Input line: For Cc1cc2c([nH]1)CSc1cc(S(=O)(=O)c3ccccc3)c(=O)[nH]c1-2 , what call appears in the results of this test?
Output line: inactive

Input line: For this compound, state the assay outcome: CCOC(=O)c1c(NC(=O)c2ccc(C(C)C)cc2)sc2c(CN(C)C)c(O)ccc12
Output line: inactive

Input line: Each compound tested received a call. Report the one for NC(=O)CCC(C(=O)O)N1C(=O)c2ccc(O)cc2C1=O (stereo not given) .
Output line: inactive

Input line: Kindly provide the recorded test outcome for the following compound: O=C(Nc1nc2ccc(F)cc2s1)c1cccnc1Nc1ccc(Cl)cc1
Output line: inactive

Input line: For CN1C(=O)/C(=C/c2ccc(C(=O)Nc3ncc(Cc4ccc(Cl)cc4)s3)cc2)SC1=S , which call appears in the assay record?
Output line: inactive

Input line: Fill in: this test's call for O=C(CSc1nc2ccc([N+](=O)[O-])cc2[nH]1)Nc1cccc(C(F)(F)F)c1 is ___
Output line: active

* * *

Catalogue of growth values
System: M14 melanoma
Assay: NCI-60 one-dose screen, 48 h (100 = growth as untreated, 0 = no growth, -100 = all killed)
Settings: 10 µM unless noted
Procedure: Growth inhibition of the M14 human tumor cell line is measured as a screen for anti-cancer activity. Cells are grown in 96 well plates and exposed to the test compound for 48 hours. Compounds are tested at a single concentration, which is 10^-5 M for most compounds. The reported endpoint is percent growth (GI% or GIPRCNT), where numbers from 0 - 100% represent growth inhibition, and numbers from -100% - 0 represent cell death. For example, a value of 40 represents 60% growth inhibition. […]
Compounds without any hit were thinned out: in the full panel of roughly 83,000, 20% have a hit. Calls of active or inactive are those of the source. Rule for the calls: active = growth percent below 10; inactive = the rest.

Answered examples (5):
CC(C)N1CN2C(=S)NC3C2N(C1)C(=S)N3C (centres undefined)	105% (inactive)
O=C1CNC(c2ccccc2)C(c2ccccc2)N1 (centres undefined)	97.4% (inactive)
CC[C@@H](C(=O)[C@@H](C)[C@@H](O)[C@H](C)[C@@H]1O[C@@H]([C@@H](CC)C(=O)NCCc2ccc(F)cc2)CC[C@@H]1C)C1O[C@]2(C=CC(=O)[C@]3(CC[C@@](C)([C@H]4CC[C@](O)(CC)[C@H](C)O4)O3)O2)[C@H](C)C[C@@H]1C (some centres undefined)	25.4% (inactive)
O=C(NCCCN1CCOCC1)c1cccc(N2C(=O)/C(=C/c3ccc(F)cc3)SC2=S)c1	93.8% (inactive)
Cc1ccc(-c2nc(/C=C3/C(=O)Nc4ccccc43)c3ccccn23)cc1	92.3% (inactive)

Input line: Reported growth for CO[C@H]1/C=C(/C)CCC[C@H](C)[C@H](O)[C@@H](C)C(=O)C(C)(C)[C@@H](O)CC(=O)O[C@@H]1/C(C)=C/c1csc(C)n1 : what is it?
Output line: 3.27% (active)
